pKi: −log10 of the molar value.
As a worked illustration, we turn to pKi data collected for 72 kDa type IV collagenase (Homo sapiens, UniProt P08253).
Quantity Name: pKi

Cc1ccc(CCC[C@H](CP(=O)(O)O)C(=O)N[C@@H](CC2CCCCC2)C(=O)NCCc2ccccc2)cc1 (stereo in doubt; form 2); 8.60
COC(=O)CCNC(=O)[C@H](CC1CCCCC1)NC(=O)[C@H](CCCc1ccc(C)cc1)CC(=O)O; 8.93
NC(=O)CCCNC(=O)[C@H](CC1CCCCC1)NC(=O)[C@H](CCCc1ccccc1)CC(=O)O; 8.51
Cc1ccc(CCC[C@H](CC(=O)O)C(=O)N[C@@H](CC2CCCCC2)C(=O)NCCc2ccc(S(N)(=O)=O)cc2)cc1; 9.05
NS(=O)(=O)c1ccc(CCNC(=O)[C@H](CC2CCCCC2)NC(=O)[C@H](CCCc2ccccc2)CC(=O)O)cc1; 8.19
Cc1ccc(CCC[C@H](CP(=O)(O)O)C(=O)N[C@@H](CC2CCCCC2)C(=O)NCCc2ccccc2)cc1 (stereo in doubt; form 1); 6.44
